src = patent US7605163B2

- Measurement Target: mGlyT-1b (Mus musculus)
- Method Summary: Glycine Uptake Inhibition Assay (mGlyT-1b)
- Conditions Used: [3H]-glycine uptake inhibition at GlyT-1, Flp-in-CHO cells transfected with mGlyT-1b cDNA
This section presents compounds with their documented IC50 values.
Assay Endpoint: IC50 (nM)

INSERT INTO measurements (compound, unit_text, measurement) VALUES
  ('CS(=O)(=O)c1ccc(OCC(F)(F)C(F)(F)F)c(C(=O)N2CCN(c3ccc(C#N)c(F)c3F)CC2)c1', 'nM', 22),
  ('CNS(=O)(=O)c1ccc(OC2CCCC2)c(C(=O)N2CCN(c3ccc(C#N)cc3F)CC2)c1', 'nM', 31),
  ('CNS(=O)(=O)c1ccc(OCC(C)C)c(C(=O)N2CCN(c3ccc(C(F)(F)F)cc3)CC2)c1', 'nM', 12),
  ('CS(=O)(=O)c1ccc(OC2CCCC2)c(C(=O)N2CCN(c3ccc(C(F)(F)F)nc3)CC2)c1', 'nM', 37),
  ('O=C(c1cc([N+](=O)[O-])ccc1OC1CCOCC1)N1CCN(c2ccc(C(F)(F)F)cc2)CC1', 'nM', 35),
  ('CS(=O)(=O)c1ccc(OCC2CCC2)c(C(=O)N2CCN(c3ccc(C#N)c(F)c3F)CC2)c1', 'nM', 15),
  ('CS(=O)(=O)c1ccc(OC2CCCCC2)c(C(=O)N2CCN(c3ccc(C(F)(F)F)c(F)c3)CC2)c1', 'nM', 33),
  ('CNS(=O)(=O)c1ccc(OCC(C)C)c(C(=O)N2CCN(c3ccc(C#N)c(F)c3)CC2)c1', 'nM', 40),
  ('CC(C)Oc1ccc(S(C)(=O)=O)cc1C(=O)N1CCN(c2ccc(S(=O)(=O)C3CCCCC3)cc2F)CC1', 'nM', 32),
  ('CC(Oc1ccc(S(C)(=O)=O)cc1C(=O)N1CCN(c2ccc(C(F)(F)F)cc2F)CC1)C(F)(F)F (single isomer, unassigned) [compound 466]', 'nM', 26),
  ('CS(=O)(=O)c1ccc(OC2CCCC2)c(C(=O)N2CCN(c3ncc(C(F)(F)F)cc3F)CC2)c1', 'nM', 21),
  ('CNS(=O)(=O)c1ccc(OCC2CC2)c(C(=O)N2CCN(c3ccc(C#N)cc3F)CC2)c1', 'nM', 30),
  ('CC(C)Oc1ccc([N+](=O)[O-])cc1C(=O)N1CCN(c2ccc(C(F)(F)F)cc2)CC1', 'nM', 17),
  ('CS(=O)(=O)c1ccc(OCC(F)(F)F)c(C(=O)N2CCN(c3ccc(Cl)c(Cl)c3)CC2)c1', 'nM', 32),
  ('CCS(=O)(=O)c1ccc(N2CCN(C(=O)c3cc(S(C)(=O)=O)ccc3OCC3CC3)CC2)c(F)c1', 'nM', 44);

---

# reported IC50; entries follow
- Measurement Target: mGlyT-1b (Mus musculus, UniProt P28571)
- Construct: host or cells: Flp-in-CHO cells
- Sequence (P28571 1-651 isoform P28571-2): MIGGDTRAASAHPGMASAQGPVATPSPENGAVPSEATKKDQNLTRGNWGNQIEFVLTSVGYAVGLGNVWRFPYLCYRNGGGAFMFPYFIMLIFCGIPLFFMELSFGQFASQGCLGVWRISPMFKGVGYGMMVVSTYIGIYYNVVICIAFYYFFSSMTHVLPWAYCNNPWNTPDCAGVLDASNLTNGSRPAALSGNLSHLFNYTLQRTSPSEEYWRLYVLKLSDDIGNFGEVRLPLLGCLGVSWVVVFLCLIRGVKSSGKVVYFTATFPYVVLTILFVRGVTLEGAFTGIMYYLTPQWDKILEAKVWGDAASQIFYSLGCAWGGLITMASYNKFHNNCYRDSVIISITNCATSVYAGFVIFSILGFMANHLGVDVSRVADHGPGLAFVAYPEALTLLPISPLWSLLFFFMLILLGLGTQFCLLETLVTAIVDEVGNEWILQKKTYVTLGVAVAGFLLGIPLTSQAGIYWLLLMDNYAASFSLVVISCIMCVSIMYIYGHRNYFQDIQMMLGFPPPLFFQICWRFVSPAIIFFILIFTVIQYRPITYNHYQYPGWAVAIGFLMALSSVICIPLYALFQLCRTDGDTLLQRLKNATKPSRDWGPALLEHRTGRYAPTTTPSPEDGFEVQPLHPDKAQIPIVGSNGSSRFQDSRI
- Method Summary: Glycine Uptake Inhibition Assay (mGlyT-1b)
- Type: cell-based
- Conditions Used: [3H]-glycine uptake inhibition at GlyT-1, Flp-in-CHO cells transfected with mGlyT-1b cDNA
Assay Endpoint: IC50 (µM)

INSERT INTO results (compound, measurement_target, unit_text, measurement) VALUES
  ('CS(=O)(=O)c1ccc(OC2CCCC2)c(C(=O)N2CCN(c3ccc(C#N)c(F)c3F)CC2)c1 [compound 131]', 'mGlyT-1b (Mus musculus, UniProt P28571)', 'µM', 0.03),
  ('CS(=O)(=O)c1ccc(OCC(F)(F)C(F)F)c(C(=O)N2CCN(c3c(F)cc(C#N)cc3F)CC2)c1 [compound 215]', 'mGlyT-1b (Mus musculus, UniProt P28571)', 'µM', 0.049),
  ('O=C(c1cc([N+](=O)[O-])ccc1OCC(F)(F)C(F)(F)F)N1CCN(c2ccc(C(F)(F)F)cc2)CC1 [Example 100]', 'mGlyT-1b (Mus musculus, UniProt P28571)', 'µM', 0.02),
  ('CC(=O)c1ccc(N2CCN(C(=O)c3cc(S(C)(=O)=O)ccc3OC(C)C)CC2)c(F)c1 [Example 1]', 'mGlyT-1b (Mus musculus, UniProt P28571)', 'µM', 0.039),
  ('CNS(=O)(=O)c1ccc(OCC2CCC2)c(C(=O)N2CCN(c3ccc(C#N)cc3)CC2)c1 [compound 494]', 'mGlyT-1b (Mus musculus, UniProt P28571)', 'µM', 0.03),
  ('CS(=O)(=O)c1ccc(OCC2CC2)c(C(=O)N2CCN(c3c(F)cc(C#N)cc3F)CC2)c1 [compound 165]', 'mGlyT-1b (Mus musculus, UniProt P28571)', 'µM', 0.47),
  ('CC(C)Oc1ccc(S(C)(=O)=O)cc1C(=O)N1CCN(c2ccc(S(=O)(=O)C(F)(F)F)cc2)CC1 [Example 328]', 'mGlyT-1b (Mus musculus, UniProt P28571)', 'µM', 0.032),
  ('CS(=O)(=O)c1ccc(OC2CCCC2)c(C(=O)N2CCN(c3ccc(C(F)(F)F)cn3)CC2)c1 [compound 412]', 'mGlyT-1b (Mus musculus, UniProt P28571)', 'µM', 0.033),
  ('O=C(c1cc([N+](=O)[O-])ccc1OCC(F)(F)F)N1CCN(c2ccc(C(F)(F)F)cc2)CC1 [Example 84]', 'mGlyT-1b (Mus musculus, UniProt P28571)', 'µM', 0.04),
  ('CC(C)COc1ccc(S(C)(=O)=O)cc1C(=O)N1CCN(c2ccc(C(F)(F)F)cc2C#N)CC1 [compound 375]', 'mGlyT-1b (Mus musculus, UniProt P28571)', 'µM', 0.035),
  ('CC(C)COc1ccc(S(C)(=O)=O)cc1C(=O)N1CCN(c2ccc(C#N)c(F)c2F)CC1 [compound 128]', 'mGlyT-1b (Mus musculus, UniProt P28571)', 'µM', 0.02),
  ('CC(C)COc1ccc(S(C)(=O)=O)cc1C(=O)N1CCN(c2cc(F)c(C#N)cc2F)CC1 [compound 132]', 'mGlyT-1b (Mus musculus, UniProt P28571)', 'µM', 0.038),
  ('CC(C)COc1ccc(S(C)(=O)=O)cc1C(=O)N1CCN(c2ccc(S(=O)(=O)C3CC3)cc2F)CC1 [compound 578]', 'mGlyT-1b (Mus musculus, UniProt P28571)', 'µM', 0.041),
  ('CC(C)(C)Oc1ccc(S(C)(=O)=O)cc1C(=O)N1CCN(c2cc(F)c(S(C)(=O)=O)cc2F)CC1 [compound 249]', 'mGlyT-1b (Mus musculus, UniProt P28571)', 'µM', 0.032),
  ('CNS(=O)(=O)c1ccc(OCC(F)(F)F)c(C(=O)N2CCN(c3ccc(C#N)cc3F)CC2)c1 [compound 534]', 'mGlyT-1b (Mus musculus, UniProt P28571)', 'µM', 0.049),
  ('CNS(=O)(=O)c1ccc(OC2CCCC2)c(C(=O)N2CCN(c3ccc(C(C)=O)cc3F)CC2)c1 [compound 517]', 'mGlyT-1b (Mus musculus, UniProt P28571)', 'µM', 0.035);
